src = the supplement of paper PMC9262897

System: E. coli TESEC Mtb Alr
Assay: growth (OD600 after 10 h); higher = more growth (less inhibition)
Conditions: arabinose 10000000 nM; compound 0.1 mM; raw OD600 reference: median of DMSO wells […], cell-free background 0.052
Where a name gives a salt, the structure may show the parent alone.
growth class ranges: lo = under 0.2, mid = from 0.2 up to 0.3, hi = 0.3 and over

COMPOUND: Cc1cc(N)c2ccccc2[n+]1CCCCCCCCCC[n+]1c(C)cc(N)c2ccccc21 [Dequalinium dichloride]
CATEGORY: lo
//
COMPOUND: CC(C)n1c(/C=C/C(O)CC(O)CC(=O)O)c(-c2ccc(F)cc2)c2ccccc21 (configuration not stated) [Fluvastatin sodium salt]
CATEGORY: mid
//
COMPOUND: N[C@@H](C(=O)N[C@@H]1C(=O)N2C(C(=O)O)=C(Cl)CC[C@H]12)c1ccccc1
CATEGORY: hi
//
COMPOUND: CCOC(=O)C1=C(C)NC(C)=C(C(=O)OC)C1c1cccc(Cl)c1Cl (configuration not stated)
CATEGORY: lo
//
COMPOUND: CC(=O)Oc1cc(C(F)(F)F)ccc1C(=O)O
CATEGORY: hi
//
COMPOUND: CN(C)CCC(c1ccccc1)c1ccccn1 (configuration not stated) [Pheniramine maleate]
CATEGORY: hi
//
COMPOUND: O=C(O)CN(CCN(CC(=O)O)CC(=O)O)CCN(CC(=O)O)CC(=O)O
CATEGORY: lo
//
COMPOUND: COc1ccc(C(=O)CC(=O)c2ccc(C(C)(C)C)cc2)cc1
CATEGORY: mid
//
COMPOUND: CC(C)CC(=O)N[C@H](C(=O)N[C@H](C(=O)N[C@@H](CC(C)C)[C@@H](O)CC(=O)N[C@@H](C)C(=O)N[C@@H](CC(C)C)[C@@H](O)CC(=O)O)C(C)C)C(C)C
CATEGORY: hi
//
COMPOUND: O=C1C(CC[S+]([O-])c2ccccc2)C(=O)N(c2ccccc2)N1c1ccccc1 (configuration not stated)
CATEGORY: hi
